method.summary: Particle size distribution by laser diffraction particle size analyzer (volume basis)
Assay type: physicochemical
experimental.conditions: starting material as used (medicament, polymer, other additive, mixed powder); volume basis
quantity: particle size distribution D50 (μm)

a: Cl.O=C1[C@@H]2[C@H]3CC[C@H](C3)[C@@H]2C(=O)N1C[C@@H]1CCCC[C@H]1CN1CCN(c2nsc3ccccc23)CC1 [Compound B, reference compound]
b: NS(=O)(=O)Cc1noc2ccccc12 [Compound A, 1,2-benzisoxazole-3-methanesulfonamide, reference compound]
Query: Pick one: a or b . Which one has the lower reported particle size distribution D50? Answer by stating the label of the chosen item.
Reply: a

---

method.summary: Particle size distribution by laser diffraction particle size analyzer (volume basis)
Type: physicochemical
experimental.conditions: medicament used (raw material), laser diffraction SALD-3000J
quantity: particle size distribution D50 (μm)

- compound: "NS(=O)(=O)Cc1noc2ccccc12 [Compound A (D50: 9.9 μm)]"
  particle size distribution D50 / μm: 9.9
- compound: "NS(=O)(=O)Cc1noc2ccccc12 [Compound A (D50: 2.7 μm)]"
  particle size distribution D50 / μm: 2.7

I: NS(=O)(=O)Cc1noc2ccccc12 [Compound A, 1,2-benzisoxazole-3-methanesulfonamide, reference compound]
II: NS(=O)(=O)Cc1noc2ccccc12 [Compound A (D50: 6.9 μm)]
Query: Pick one: I or II . Which one has the lower reported particle size distribution D50? Answer by stating the label of the chosen item.
Reply: I
(I: 2.7 μm, II: 6.9 μm)

---

method.summary: Particle size distribution by laser diffraction particle size analyzer (volume basis)
Type: physicochemical
experimental.conditions: medicament used (raw material), laser diffraction SALD-3000J
quantity: particle size distribution D90 (μm)

- molecule: "NS(=O)(=O)Cc1noc2ccccc12 [Compound A (D50: 2.7 μm)]"
  measure.unit: "μm"
  particle size distribution D90: 5.6

1: NS(=O)(=O)Cc1noc2ccccc12 [Compound A (D50: 6.9 μm)]
2: NS(=O)(=O)Cc1noc2ccccc12 [Compound A (D50: 9.9 μm)]
Query: Pick one: 1 or 2 . Which one has the lower reported particle size distribution D90? Answer by stating the label of the chosen item.
Reply: 1

---

method.summary: Particle size distribution by laser diffraction particle size analyzer (volume basis)
Type: physicochemical
experimental.conditions: starting material as used (medicament, polymer, other additive, mixed powder); volume basis
Where a name gives a salt, the structure may show the parent alone.
quantity: particle size distribution D90 (μm)

I: COc1ccc2c(c1)c(CC(=O)O)c(C)n2C(=O)c1ccc(Cl)cc1 [Compound G, reference compound]
II: COc1cccc(-c2nccc3[nH]c(=O)c(-c4noc(C)n4)cc23)c1 [Compound F]
III: CCOc1cc(N)c(Cl)cc1C(=O)NCC1CN(Cc2ccc(F)cc2)CCO1 (stereo not shown) [mosapride citrate, reference compound]
Query: Arrange the 3 compounds from largest to smallest particle size distribution D90. I would appreciate it if you listed the labels in the requested order.
Reply: III, I, II
(III: 30.6 μm, I: 8.1 μm, II: 5.0 μm)

---

method.summary: Particle size distribution by laser diffraction particle size analyzer (volume basis)
Type: physicochemical
experimental.conditions: medicament used (raw material), laser diffraction SALD-3000J
Description: In the present invention, the “average particle size” means cumulative 50% particle size D50 in the volume based measurement of powder particles. Such average particle size is measured by a laser diffraction particle size analyzer (e.g., Particle Viewer manufactured by POWREX CORPORATION, or SALD-3000J manufactured by Shimadzu Corporation, or HELOS&RODOS manufactured by Sympatec GmbH) by volume basis. […]
quantity: particle size distribution D10 (μm)

- compound: "NS(=O)(=O)Cc1noc2ccccc12 [Compound A (D50: 2.7 μm)]"
  obs.value: 0.7
- compound: "NS(=O)(=O)Cc1noc2ccccc12 [Compound A (D50: 9.9 μm)]"
  obs.value: 1.2

I: NS(=O)(=O)Cc1noc2ccccc12 [Compound A, 1,2-benzisoxazole-3-methanesulfonamide, reference compound]
II: NS(=O)(=O)Cc1noc2ccccc12 [Compound A (D50: 6.9 μm)]
Query: Pick one: I or II . Which one has the lower reported particle size distribution D10? Answer by stating the label of the chosen item.
Reply: I
(I: 0.7 μm, II: 1.0 μm)

---

method.summary: Particle size distribution by laser diffraction particle size analyzer (volume basis)
Format: physicochemical
experimental.conditions: starting material as used (medicament, polymer, other additive, mixed powder); volume basis
Structures can show the parent of a compound that is named as a salt.
quantity: particle size distribution D10 (μm)

A selection of reference data follows.
- compound: "CC(=O)Nc1ccc(O)cc1 [acetaminophen, reference compound]"
  measure.unit: "μm"
  particle size distribution D10: 2.8
- compound: "Cl.O=C1[C@@H]2[C@H]3CC[C@H](C3)[C@@H]2C(=O)N1C[C@@H]1CCCC[C@H]1CN1CCN(c2nsc3ccccc23)CC1 [Compound B, reference compound]"
  measure.unit: "μm"
  particle size distribution D10: 0.5
- compound: "O=C([O-])[O-].[Mg+2] [magnesium carbonate (light), magnesium carbonate]"
  measure.unit: "μm"
  particle size distribution D10: 0.9
- compound: "Nc1ccc(O)c(C(=O)O)c1 [Compound D, 5-amino-2-hydroxybenzoic acid, reference compound]"
  measure.unit: "μm"
  particle size distribution D10: 1.3
- compound: "OC[C@H]1O[C@@H](O[C@H]2[C@H](O)[C@@H](O)C(O)O[C@@H]2CO)[C@H](O)[C@@H](O)[C@H]1O (stereo partly drawn) [lactose (Pharmatose 200M), lactose]"
  measure.unit: "μm"
  particle size distribution D10: 4.0
- compound: "CCOc1cc(N)c(Cl)cc1C(=O)NCC1CN(Cc2ccc(F)cc2)CCO1 (stereo not drawn) [mosapride citrate, reference compound]"
  measure.unit: "μm"
  particle size distribution D10: 2.3
- compound: "NS(=O)(=O)Cc1noc2ccccc12 [Compound A, 1,2-benzisoxazole-3-methanesulfonamide, reference compound]"
  measure.unit: "μm"
  particle size distribution D10: 0.7
- compound: "C[C@@H](c1ccc(-c2ccccc2)c(F)c1)c1cc(N=C(N)N2CCOCC2)on1"
  measure.unit: "μm"
  particle size distribution D10: 1.3
- compound: "OC[C@@H](O)[C@@H](O)[C@H](O)[C@H](O)CO [D-mannitol (JM pulverized product), D-mannitol]"
  measure.unit: "μm"
  particle size distribution D10: 0.5
- compound: "COc1ccc2c(c1)c(CC(=O)O)c(C)n2C(=O)c1ccc(Cl)cc1 [Compound G, reference compound]"
  measure.unit: "μm"
  particle size distribution D10: 0.8

P: COc1cccc(-c2nccc3[nH]c(=O)c(-c4noc(C)n4)cc23)c1
Q: OC[C@@H](O)[C@@H](O)[C@H](O)[C@H](O)CO [D-mannitol (PEARLITOL 50C), D-mannitol]
Query: Response body: label of entry with the larger particle size distribution D10; valid values P , Q . Answer by stating the label of the chosen item.
Reply: Q
(Q: 6.9 μm, P: 0.6 μm)

---

method.summary: Particle size distribution by laser diffraction particle size analyzer (volume basis)
Format: physicochemical
experimental.conditions: starting material as used (medicament, polymer, other additive, mixed powder); volume basis
quantity: particle size distribution D90 (μm)

A selection of reference data follows.
- compound: "O=C([O-])[O-].[Mg+2] [magnesium carbonate (light), magnesium carbonate]"
  obs.value: 10.6
- compound: "Nc1ccc(O)c(C(=O)O)c1 [Compound D, 5-amino-2-hydroxybenzoic acid, reference compound]"
  obs.value: 12.7
- compound: "OC[C@@H](O)[C@@H](O)[C@H](O)[C@H](O)CO [D-mannitol (PEARLITOL 50C), D-mannitol]"
  obs.value: 125.2
- compound: "CC(=O)Nc1ccc(O)cc1 [acetaminophen, reference compound]"
  obs.value: 46.1
- compound: "OC[C@@H](O)[C@@H](O)[C@H](O)[C@H](O)CO [D-mannitol (JM pulverized product), D-mannitol]"
  obs.value: 4.2
- compound: "NS(=O)(=O)Cc1noc2ccccc12 [Compound A, 1,2-benzisoxazole-3-methanesulfonamide, reference compound]"
  obs.value: 5.6

1: OC[C@H]1O[C@@H](O[C@H]2[C@H](O)[C@@H](O)C(O)O[C@@H]2CO)[C@H](O)[C@@H](O)[C@H]1O (some centres unmarked) [lactose (Pharmatose 200M), lactose]
2: Cl.O=C1[C@@H]2[C@H]3CC[C@H](C3)[C@@H]2C(=O)N1C[C@@H]1CCCC[C@H]1CN1CCN(c2nsc3ccccc23)CC1 [Compound B, reference compound]
Query: Response body: label of entry with the larger particle size distribution D90; valid values 1 , 2 . Answer by stating the label of the chosen item.
Reply: 1

---

method.summary: Particle size distribution by laser diffraction particle size analyzer (volume basis)
Assay type: physicochemical
experimental.conditions: starting material as used (medicament, polymer, other additive, mixed powder); volume basis
Where a name gives a salt, the structure may show the parent alone.
quantity: particle size distribution D50 (μm)

- compound: "O=C([O-])[O-].[Mg+2] [magnesium carbonate (light), magnesium carbonate]"
  measure.unit: "μm"
  particle size distribution D50: 4.0
- compound: "OC[C@@H](O)[C@@H](O)[C@H](O)[C@H](O)CO [D-mannitol (PEARLITOL 50C), D-mannitol]"
  measure.unit: "μm"
  particle size distribution D50: 47.0
- compound: "C[C@@H](c1ccc(-c2ccccc2)c(F)c1)c1cc(N=C(N)N2CCOCC2)on1"
  measure.unit: "μm"
  particle size distribution D50: 3.2
- compound: "COc1cccc(-c2nccc3[nH]c(=O)c(-c4noc(C)n4)cc23)c1"
  measure.unit: "μm"
  particle size distribution D50: 2.5
- compound: "CCOc1cc(N)c(Cl)cc1C(=O)NCC1CN(Cc2ccc(F)cc2)CCO1 (stereo not shown) [mosapride citrate, reference compound]"
  measure.unit: "μm"
  particle size distribution D50: 9.2

P: COc1ccc2c(c1)c(CC(=O)O)c(C)n2C(=O)c1ccc(Cl)cc1 [Compound G, reference compound]
Q: CC(=O)Nc1ccc(O)cc1 [acetaminophen, reference compound]
R: Nc1ccc(O)c(C(=O)O)c1 [Compound D, 5-amino-2-hydroxybenzoic acid, reference compound]
S: OC[C@@H](O)[C@@H](O)[C@H](O)[C@H](O)CO [D-mannitol (JM pulverized product), D-mannitol]
T: OC[C@H]1O[C@@H](O[C@H]2[C@H](O)[C@@H](O)C(O)O[C@@H]2CO)[C@H](O)[C@@H](O)[C@H]1O (stereo partly shown) [lactose (Pharmatose 200M), lactose]
Query: Arrange these 5 compounds in increasing order of particle size distribution D50. I would appreciate it if you listed the labels in the requested order.
Reply: S, P, R, Q, T
(S: 2.0 μm, P: 3.1 μm, R: 4.6 μm, Q: 11.6 μm, T: 48.7 μm)
